- target-or-system: T1, cyno TfR ECD (cynomolgus)
- T1 chain: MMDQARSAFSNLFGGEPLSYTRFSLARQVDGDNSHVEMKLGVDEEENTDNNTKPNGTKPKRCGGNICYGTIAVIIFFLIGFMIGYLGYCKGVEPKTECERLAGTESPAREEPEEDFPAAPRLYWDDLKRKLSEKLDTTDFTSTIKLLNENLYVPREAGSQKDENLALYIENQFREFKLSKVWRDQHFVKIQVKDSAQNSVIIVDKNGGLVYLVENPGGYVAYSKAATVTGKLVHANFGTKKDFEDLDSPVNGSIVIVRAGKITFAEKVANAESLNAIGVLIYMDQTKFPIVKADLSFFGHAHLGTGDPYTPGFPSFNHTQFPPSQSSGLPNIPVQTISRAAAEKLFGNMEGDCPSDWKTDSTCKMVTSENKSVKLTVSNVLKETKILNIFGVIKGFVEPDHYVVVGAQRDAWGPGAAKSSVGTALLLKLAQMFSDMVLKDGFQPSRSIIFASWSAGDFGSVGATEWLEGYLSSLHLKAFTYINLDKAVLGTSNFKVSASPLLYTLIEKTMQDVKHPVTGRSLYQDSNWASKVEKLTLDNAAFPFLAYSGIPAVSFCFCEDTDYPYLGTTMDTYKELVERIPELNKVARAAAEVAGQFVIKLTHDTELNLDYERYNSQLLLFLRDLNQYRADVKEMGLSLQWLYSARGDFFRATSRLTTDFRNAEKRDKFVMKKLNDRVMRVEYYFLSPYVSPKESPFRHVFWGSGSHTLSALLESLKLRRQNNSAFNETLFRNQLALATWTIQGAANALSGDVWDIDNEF
- method-description: ELISA
binders and their reported EC50
Please respond with the number in ng/mL and leave the unit unwritten.

Solved entries (count: 2):
| binder | observed-value |
| --- | --- |
| hu15G11.v5 LC S31A (antibody, V domains shown) VH: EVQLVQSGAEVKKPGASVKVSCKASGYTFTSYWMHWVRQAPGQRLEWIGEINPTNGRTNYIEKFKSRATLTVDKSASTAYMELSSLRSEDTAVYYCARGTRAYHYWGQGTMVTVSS VL: DIQMTQSPSSLSASVGDRVTITCRASDNLYANLAWYQQKPGKSPKLLVYDATNLADGVPSRFSGSGSGTDYTLTISSLQPEDFATYYCQHFWGTPLTFGQGTKVEIK | 0.7 |
| hu15G11.v5 HC F29A (antibody, V domains shown) VH: EVQLVQSGAEVKKPGASVKVSCKASGYTATSYWMHWVRQAPGQRLEWIGEINPTNGRTNYIEKFKSRATLTVDKSASTAYMELSSLRSEDTAVYYCARGTRAYHYWGQGTMVTVSS VL: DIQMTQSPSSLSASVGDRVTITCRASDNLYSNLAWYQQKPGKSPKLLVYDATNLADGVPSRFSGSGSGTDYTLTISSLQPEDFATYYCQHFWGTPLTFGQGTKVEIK | 12.5 |

Return reported EC50. Input binder: hu15G11.v5 LC L29A (antibody, V domains shown) VH: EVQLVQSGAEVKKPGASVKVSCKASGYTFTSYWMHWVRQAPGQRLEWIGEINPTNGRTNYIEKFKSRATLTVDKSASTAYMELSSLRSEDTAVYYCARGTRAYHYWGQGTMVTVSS VL: DIQMTQSPSSLSASVGDRVTITCRASDNAYSNLAWYQQKPGKSPKLLVYDATNLADGVPSRFSGSGSGTDYTLTISSLQPEDFATYYCQHFWGTPLTFGQGTKVEIK
0.9

Return reported EC50. Input binder: hu15G11.v5 LC S26A (antibody, V domains shown) VH: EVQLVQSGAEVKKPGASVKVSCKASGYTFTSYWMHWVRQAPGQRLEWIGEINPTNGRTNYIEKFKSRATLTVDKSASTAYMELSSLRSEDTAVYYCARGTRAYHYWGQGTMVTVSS VL: DIQMTQSPSSLSASVGDRVTITCRAADNLYSNLAWYQQKPGKSPKLLVYDATNLADGVPSRFSGSGSGTDYTLTISSLQPEDFATYYCQHFWGTPLTFGQGTKVEIK
0.6

Return reported EC50. Input binder: hu15G11.v5 HC Y27A (antibody, V domains shown) VH: EVQLVQSGAEVKKPGASVKVSCKASGATFTSYWMHWVRQAPGQRLEWIGEINPTNGRTNYIEKFKSRATLTVDKSASTAYMELSSLRSEDTAVYYCARGTRAYHYWGQGTMVTVSS VL: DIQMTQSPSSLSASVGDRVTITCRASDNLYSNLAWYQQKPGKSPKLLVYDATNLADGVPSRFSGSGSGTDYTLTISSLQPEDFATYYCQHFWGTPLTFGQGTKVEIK
1470

Return reported EC50. Input binder: hu15G11.v5 HC N52A (antibody, V domains shown) VH: EVQLVQSGAEVKKPGASVKVSCKASGYTFTSYWMHWVRQAPGQRLEWIGEIAPTNGRTNYIEKFKSRATLTVDKSASTAYMELSSLRSEDTAVYYCARGTRAYHYWGQGTMVTVSS VL: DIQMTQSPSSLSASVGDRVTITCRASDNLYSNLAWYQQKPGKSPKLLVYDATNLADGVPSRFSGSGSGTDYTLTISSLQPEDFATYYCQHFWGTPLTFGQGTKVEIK
0.9
